This listing pairs binders with measured LOD (log[ZIKV], copies/mL).
- target: intact ZIKV particles (ZIKV envelope protein) (Zika virus)
- measurement-notes: direct ELISA on coated intact ZIKV particles (10-fold dilutions), biotinylated peptide 20 uM, streptavidin-HRP; LOD = blank + 3 SD
measured-quantity: LOD (log[ZIKV], copies/mL)

{"binder": "CLRGHA (maleimide-PEG2-biotin on the N-terminal cysteine) [mono-arm peptide P2]", "measured-quantity": "LOD (log[ZIKV], copies/mL)", "reported-value": 4.5}
{"binder": "CKRNATP (maleimide-PEG2-biotin on the N-terminal cysteine) [mono-arm peptide X1]", "measured-quantity": "LOD (log[ZIKV], copies/mL)", "reported-value": 4.8}
{"binder": "CSWPGQ (maleimide-PEG2-biotin on the N-terminal cysteine) [mono-arm peptide P1]", "measured-quantity": "LOD (log[ZIKV], copies/mL)", "reported-value": 6.8}
{"binder": "CKTDAYS (maleimide-PEG2-biotin on the N-terminal cysteine) [mono-arm peptide X2]", "measured-quantity": "LOD (log[ZIKV], copies/mL)", "reported-value": 5.8}
